All values here come from ChEMBL document CHEMBL2311490.

Can you tell me pKi for the items I'm about to list?
Biological target: Melatonin receptor type 1B (Homo sapiens)
Sequence (P49286 whole entry): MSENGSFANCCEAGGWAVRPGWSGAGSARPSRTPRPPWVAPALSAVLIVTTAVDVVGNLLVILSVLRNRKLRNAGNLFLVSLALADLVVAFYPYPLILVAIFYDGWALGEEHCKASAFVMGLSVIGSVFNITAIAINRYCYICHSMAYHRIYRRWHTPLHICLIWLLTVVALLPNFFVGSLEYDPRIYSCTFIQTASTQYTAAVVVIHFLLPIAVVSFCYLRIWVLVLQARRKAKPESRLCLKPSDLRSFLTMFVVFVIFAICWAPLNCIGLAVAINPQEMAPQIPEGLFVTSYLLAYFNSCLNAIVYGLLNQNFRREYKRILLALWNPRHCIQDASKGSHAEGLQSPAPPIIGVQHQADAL
Experiment: Displacement of [125I]2-iodomelatonin from human recombinant MT2 receptor expressed in HEK293 cells after 2 hrs by gamma counting
// pKi is dimensionless: -log10 of concentration (M)

The reported value for COc1ccc2ccccc2c1[C@@H]1C[C@H]1NC(C)=O (racemic) in terms of pKi is 8.59

The reported value for CC(=O)N[C@@H]1C[C@H]1c1cccc2ccccc12 (racemic) in terms of pKi is 8.17

The reported value for COc1ccc2ccc(OC)c([C@@H]3C[C@H]3NC(C)=O)c2c1 (racemic) in terms of pKi is 9.70

The reported value for COc1ccc2ccccc2c1/C=C/NC(C)=O in terms of pKi is 10.05

The reported value for CC(=O)N/C=C/c1cccc2ccccc12 in terms of pKi is 8.85

The reported value for COc1ccc2ccc(OC)c(/C=C/NC(C)=O)c2c1 in terms of pKi is 10.15

* * *

molecular target: Melatonin receptor type 1A (Homo sapiens, UniProt P48039); assay: Displacement of [125I]2-iodomelatonin from human recombinant MT1 receptor expressed in HEK293 cells after 2 hrs by gamma counting
Sequence (P48039 whole entry): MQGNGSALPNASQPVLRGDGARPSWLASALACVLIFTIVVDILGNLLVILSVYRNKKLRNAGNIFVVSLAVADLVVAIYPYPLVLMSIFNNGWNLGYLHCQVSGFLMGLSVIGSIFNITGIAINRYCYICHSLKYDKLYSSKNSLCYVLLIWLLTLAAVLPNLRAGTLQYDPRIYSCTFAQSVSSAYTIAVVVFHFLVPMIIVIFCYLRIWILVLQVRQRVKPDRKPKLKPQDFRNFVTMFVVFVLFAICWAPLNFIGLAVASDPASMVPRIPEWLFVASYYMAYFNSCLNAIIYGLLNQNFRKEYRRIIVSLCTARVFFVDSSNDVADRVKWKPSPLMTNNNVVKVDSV
Can you tell me Ki for the items I'm about to list?
Answer with a number only, understood to be in nM.

The reported value for COc1ccc2cccc(/C=C/NC(C)=O)c2c1 in terms of Ki is 0.04

The reported value for COc1ccc2ccc(OC)c(/C=C/NC(C)=O)c2c1 in terms of Ki is 0.03

The reported value for COc1ccc2cccc([C@@H]3C[C@H]3NC(C)=O)c2c1 (racemic) in terms of Ki is 0.3

The reported value for COc1ccc(OC)c([C@@H]2C[C@H]2NC(C)=O)c1 (racemic) in terms of Ki is 87

The reported value for CNC(=O)N/C=C/c1c(OC)ccc2ccccc12 in terms of Ki is 3.1

The reported value for CC(=O)N[C@@H]1C[C@H]1c1cccc2ccccc12 (racemic) in terms of Ki is 19

The reported value for COc1ccc2ccccc2c1/C=C/NC(C)=O in terms of Ki is 0.1

The reported value for CNC(=O)N/C=C/c1cccc2ccccc12 in terms of Ki is 25

The reported value for CC(=O)N/C=C/c1cccc2ccccc12 in terms of Ki is 6.7

The reported value for COc1ccc2ccccc2c1[C@@H]1C[C@H]1NC(C)=O (racemic) in terms of Ki is 3.7

The reported value for CNC(=O)N/C=C/c1c(OC)ccc2ccc(OC)cc12 in terms of Ki is 0.2

The reported value for COc1ccc2ccc(OC)c([C@@H]3C[C@H]3NC(C)=O)c2c1 (racemic) in terms of Ki is 0.06
